Every entry's value here was drawn from the supplement of paper PMC10567573.

B1: FBXO39 (parent)
chain: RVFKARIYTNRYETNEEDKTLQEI

Variants of: B1
protocolText: protein stability index of a GFP-peptide fusion (GPS, HEK-293T) (PSI 1-6); higher = more stable;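 note: lentivirally expressed fusions sorted by FACS into six bins by GFP to DsRed ratio, PSI derived from sequencing read proportions per bin multiplied by bin number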
recordedConditions: c terminus: a fixed tail appended
Field: protein stability index. Provide a value for each of the variants that follow.
Keep the answer to the number alone.

Looking up RVFKARIYTNRYETYEEDKTLQEI [N15Y] , I see its protein stability index listed as 2.06

Looking up RVFKARIYTNRYETNETDKTLQEI [E17T] , I see its protein stability index listed as 2.83

Looking up RVFCARIYTNRYETNEEDKTLQEI [K4C] , I see its protein stability index listed as 2.83

Looking up RVFKARIYENRYETNEEDKTLQEI [T9E] , I see its protein stability index listed as 3.24
